The measured values listed here are drawn from paper PMC10786891.

# assayed system: T1, EsCas13d, nuclease-dead (Eubacterium siraeum, UniProt B0MS50, R295A;H300A;R849A;H854A)
# T1 sequence: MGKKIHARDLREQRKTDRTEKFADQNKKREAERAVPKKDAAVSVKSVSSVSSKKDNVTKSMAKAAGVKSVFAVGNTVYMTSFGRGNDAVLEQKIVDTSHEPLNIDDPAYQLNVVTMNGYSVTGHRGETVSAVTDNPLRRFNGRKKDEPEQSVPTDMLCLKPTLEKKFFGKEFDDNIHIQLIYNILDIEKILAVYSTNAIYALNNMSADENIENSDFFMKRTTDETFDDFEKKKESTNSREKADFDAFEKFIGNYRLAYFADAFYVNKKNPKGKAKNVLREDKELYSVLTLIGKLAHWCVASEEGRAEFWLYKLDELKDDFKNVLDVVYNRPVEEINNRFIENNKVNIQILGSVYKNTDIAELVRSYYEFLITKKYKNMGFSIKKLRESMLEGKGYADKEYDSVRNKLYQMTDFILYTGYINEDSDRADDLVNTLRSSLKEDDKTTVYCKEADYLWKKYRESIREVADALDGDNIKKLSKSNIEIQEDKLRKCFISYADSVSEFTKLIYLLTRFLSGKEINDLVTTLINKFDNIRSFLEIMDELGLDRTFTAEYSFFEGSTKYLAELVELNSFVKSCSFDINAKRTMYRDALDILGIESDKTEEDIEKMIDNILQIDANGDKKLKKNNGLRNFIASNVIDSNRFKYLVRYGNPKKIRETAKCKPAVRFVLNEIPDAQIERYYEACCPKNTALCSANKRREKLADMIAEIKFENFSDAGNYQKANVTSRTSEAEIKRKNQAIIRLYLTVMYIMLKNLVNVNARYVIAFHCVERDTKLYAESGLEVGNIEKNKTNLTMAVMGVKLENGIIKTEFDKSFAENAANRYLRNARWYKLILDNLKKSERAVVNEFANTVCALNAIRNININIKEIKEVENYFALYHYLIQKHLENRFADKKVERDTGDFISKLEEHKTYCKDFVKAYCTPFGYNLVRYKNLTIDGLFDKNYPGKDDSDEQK
# protocol details: crRNA (strand 1, pre-loaded); Mg2+; 40 mM Tris-HCl pH 7.5, 150 mM NaCl, 6 mM MgCl2, 1 mM DTT, 0.1% Tween-20, 0.2 mg/ml BSA; 25 C; 10 min per concentration, then washed
# test parameters: tags: His6-TwinStrep-SUMO cleaved; N-terminal SNAP kept (SNAP-Surface 488); label: 3' end held by stalled T7 RNA polymerase
pKd: −log10 of the molar value.
Threshold rule: pKd greater than or equal to 8 is Fulfilled; below that, Not fulfilled.

binder: target 3 insA 3' of 7,insU 3' of 6 (mixed) RNA 1: CACCCGUGCAAAAUUGCAGGGGUCUAAAACGACCUGAAUAUUUCAGAUCAAA RNA 2: GGGAAUGGAUCCACAUCUACGAAUUCGUUUUUGAUCUGAAAUAUUACUAGGUCUGCAGAUCGGAAGAGCACACGU
answer label: Not fulfilled
//
binder: target 1 C4G,A18C (mixed) RNA 1: CACCCGUGCAAAAAUGCAGGGGUCUAAAACUGAGCGGAUAACCUCUCUAUGG RNA 2: GGGAAUGGAUCCACAUCUACGAAUUCGUACCAUCGAGAGGUUAUCCGGUCACCGAGAUCGGAAGAGCACACGU
answer label: Not fulfilled
//
binder: target 2 MT 5'PFS CAU 3'PFS AAG (mixed) RNA 1: CACCCGUGCAAAAUUGCAGGGGUCUAAAACCUUCUCCAAAUUGUUUCAUCCU RNA 2: GGGAAUGGAUCCACAUCUACGAAUUCCAUAGGAUGAAACAAUUUGGAGAAGAAGAGAUCGGAAGAGCACACGU
answer label: Fulfilled
//
binder: target 1 G12C,C22A (mixed) RNA 1: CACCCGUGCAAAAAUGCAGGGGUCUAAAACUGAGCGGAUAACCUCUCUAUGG RNA 2: GGGAAUGGAUCCACAUCUACGAAUUCGUAACAUAGAGAGCUUAUCCGCUCACCGAGAUCGGAAGAGCACACGU
answer label: Not fulfilled
